Each recorded value in this set is attributed to patent US12404262B2.

# recorded-conditions: 0.1N HCl, 1.0% DMSO, 24-hour incubation at ambient temperature, maximum theoretical 100 μM; first value of the cell
parameter-measured: pH 2 solubility (μM)
Could you give me the number in μM? Just the number is fine.

{"molecule": "CC(C)(C#Cc1ccc(-c2ccc(Cl)c3c(N(C(=O)NCCCP(=O)(O)O)S(C)(=O)=O)nn(CC(F)(F)F)c23)c([C@H](Cc2cc(F)cc(F)c2)NC(=O)Cn2nc(C(F)(F)F)c3c2C(F)(F)[C@@H]2C[C@H]32)n1)S(C)(=O)=O", "pH 2 solubility, μM": 1}
{"molecule": "C[C@H](N)C(=O)OCN(c1nn(CC(F)(F)F)c2c(-c3ccc(C#CC(C)(C)S(C)(=O)=O)nc3[C@H](Cc3cc(F)cc(F)c3)NC(=O)Cn3nc(C(F)(F)F)c4c3C(F)(F)[C@@H]3C[C@H]43)ccc(Cl)c12)S(C)(=O)=O", "pH 2 solubility, μM": 20}
{"molecule": "CC(C)(C#Cc1ccc(-c2ccc(Cl)c3c(N(C(=O)OCCC(C(=O)O)C(=O)O)S(C)(=O)=O)nn(CC(F)(F)F)c23)c([C@H](Cc2cc(F)cc(F)c2)NC(=O)Cn2nc(C(F)(F)F)c3c2C(F)(F)[C@@H]2C[C@H]32)n1)S(C)(=O)=O", "pH 2 solubility, μM": 1}

Reported pH 2 solubility for CC(C)(C#Cc1ccc(-c2ccc(Cl)c3c(NS(C)(=O)=O)nn(CC(F)(F)F)c23)c([C@H](Cc2cc(F)cc(F)c2)NC(=O)Cn2nc(C(F)(F)F)c3c2C(F)(F)[C@@H]2C[C@H]32)n1)S(C)(=O)=O [Intermediate 5, reference compound] : what is it?
0.11

Param item = `CN(C(=O)N(c1nn(CC(F)(F)F)c2c(-c3ccc(C#CC(C)(C)S(C)(=O)=O)nc3[C@H](Cc3cc(F)cc(F)c3)NC(=O)Cn3nc(C(F)(F)F)c4c3C(F)(F)[C@@H]3C[C@H]43)ccc(Cl)c12)S(C)(=O)=O)C(C)(C)C(=O)OCOP(=O)(O)O` ; retrieve measured pH 2 solubility.
5

Fill in: pH 2 solubility of `CC(C)(C#Cc1ccc(-c2ccc(Cl)c3c(N(C(=O)OCCNC(=O)OCOP(=O)(O)O)S(C)(=O)=O)nn(CC(F)(F)F)c23)c([C@H](Cc2cc(F)cc(F)c2)NC(=O)Cn2nc(C(F)(F)F)c3c2C(F)(F)[C@@H]2C[C@H]32)n1)S(C)(=O)=O` is ___
1

Returns the measured pH 2 solubility for the input molecule. Input: `CC(C)(C#Cc1ccc(-c2ccc(Cl)c3c(N(C(=O)NCCN4CCOCC4)S(C)(=O)=O)nn(CC(F)(F)F)c23)c([C@H](Cc2cc(F)cc(F)c2)NC(=O)Cn2nc(C(F)(F)F)c3c2C(F)(F)[C@@H]2C[C@H]32)n1)S(C)(=O)=O`
62

Requested read-out: pH 2 solubility. Entry: `CC(C)(COP(=O)(O)O)C(=O)OCN(c1nn(CC(F)(F)F)c2c(-c3ccc(C#CC(C)(C)S(C)(=O)=O)nc3[C@H](Cc3cc(F)cc(F)c3)NC(=O)Cn3nc(C(F)(F)F)c4c3C(F)(F)[C@@H]3C[C@H]43)ccc(Cl)c12)S(C)(=O)=O`
1
